Test system: Mono-Mac-6
testMethodNotes: cell viability (% survival relative to DMSO control, bortezomib = 0%); higher = less cytotoxic
experimentalConditions: 1 nM; 72 h
readoutLabel: cell viability (%)
# value in %; strip the unit string

q: Give the reported cell viability for this compound. C[C@H]1O[C@H](O[C@H]2[C@H](O)[C@@H](O)[C@@H](O[C@H]3[C@H](O)[C@@H](O)C(O)O[C@@H]3CO)O[C@@H]2CO)[C@H](O)[C@@H](O)[C@@H]1N[C@H]1C=C(CO)[C@@H](O)[C@H](O)[C@H]1O (mixture of isomers)
a: 101

q: Give the reported cell viability for this compound. CNC(=C[N+](=O)[O-])NCCSCc1ccc(CN(C)C)o1
a: 94.6

q: Output cell viability of CN(C)CCNC(=O)c1cccn2c(=O)c3cc4ccccc4cc3nc12
a: 89.8

q: State, in one line, measured cell viability of CN1CC(=O)N2[C@H](c3ccc4c(c3)OCO4)c3[nH]c4ccccc4c3C[C@@H]2C1=O
a: 99.8

q: State its cell viability: CN(C)C(=O)n1nnnc1Cc1ccc(-c2ccccc2)cc1
a: 95.9

q: Return cell viability (reported value) for this compound: N#Cc1ccc(C2CCCc3cncn32)cc1 (centres undefined)
a: 102

q: Answer with the recorded cell viability for the compound listed here: Fc1ccc(CNc2ncnc3ccc(F)cc23)cc1
a: 109

q: Give the reported cell viability for this compound. COc1cc(C2Oc3cc(C4Oc5cc(O)cc(O)c5C(=O)C4O)ccc3OC2CO)ccc1O (centres undefined)
a: 96.4

q: Identify measured cell viability associated with O=c1oc2c(cc1O)oc(=O)c1cc(O)c(O)c(O)c12
a: 92.9

q: Look up cell viability of CN(C)C(=N)NC(=N)N and report it.
a: 113

q: Answer with the recorded cell viability of NS(=O)(=O)c1ccc(S(=O)(=O)Nc2cccc3c(Cl)c[nH]c23)cc1 only.
a: 101

q: Report measured cell viability; entry is NCc1ccc(S(N)(=O)=O)cc1 [4-Homosulfanilamide]
a: 107

q: For CC(C)(O)CNc1nc(Nc2ccnc(C(F)(F)F)c2)nc(-c2cccc(C(F)(F)F)n2)n1 , write its cell viability.
a: 94.8

q: Given CC(C)(CS(=O)(=O)[O-])NC(=O)CC[N+](C)(C)CCO , respond with its cell viability.
a: 86.8

q: // Input: N[C@@H](CCC(=O)N[C@@H](CS)C(=O)NCC(=O)O)C(=O)O . Output its cell viability only.
a: 96.2

q: Please list cell viability recorded for the compound CCCCCCCCCCCCC/C=C/[C@@H](O)[C@H](CO)N(C)C
a: 95.1

q: Item O=C(/C=C/c1cccnc1)NCCCCC1CCN(C(=O)c2ccccc2)CC1 : provide cell viability
a: 99.2

q: Identify measured cell viability associated with OCCN(CCO)c1nc(N2CCCCC2)c2nc(N(CCO)CCO)nc(N3CCCCC3)c2n1
a: 98

q: Give cell viability for Nc1ccn([C@@H]2O[C@H](CO)[C@@H](O)C2(F)F)c(=O)n1
a: 95.1

Reference source for all entries: the supplement of paper PMC8671470
